assayed-target: Myt1 kinase (recombinant PMYT-1) (Homo sapiens, UniProt Q99640)
Construct: full length PMYT-1 was expressed by baculovirus in insect cells; purchased Invitrogen A30984; host or cells: insect cells (baculovirus)
Sequence (Q99640 1-499): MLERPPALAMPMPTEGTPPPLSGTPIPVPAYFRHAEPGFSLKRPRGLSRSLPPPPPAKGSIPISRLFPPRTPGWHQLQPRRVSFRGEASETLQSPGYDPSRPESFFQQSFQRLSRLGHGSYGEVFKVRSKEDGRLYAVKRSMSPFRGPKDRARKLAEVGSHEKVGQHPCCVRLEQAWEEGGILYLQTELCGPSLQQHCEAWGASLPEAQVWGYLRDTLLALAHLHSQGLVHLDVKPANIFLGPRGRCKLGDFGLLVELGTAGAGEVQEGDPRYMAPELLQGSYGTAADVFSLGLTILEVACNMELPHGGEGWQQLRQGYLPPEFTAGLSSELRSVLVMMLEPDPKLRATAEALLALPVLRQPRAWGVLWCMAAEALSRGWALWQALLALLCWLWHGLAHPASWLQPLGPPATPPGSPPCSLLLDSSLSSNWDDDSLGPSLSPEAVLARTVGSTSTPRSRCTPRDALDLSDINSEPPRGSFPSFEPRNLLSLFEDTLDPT
protocol-text: Myt1 kinase binding assay (LanthaScreen Eu Kinase Binding Assay)
measurement-setup: 3 nM tracer 178, 2.5 nM PMYT-1, 1 nM Eu-labeled antibody; read-out: Myt1 kinase Binding IC50
pIC50: −log10 of the molar value.
test-readout: pIC50

Q. Tell us which pIC50 value is on record for `C=CCn1c(=O)c2cnc(Nc3ccc4c(cnn4C(C)C)c3)nc2n1-c1cccc(OC2CCNCC2)n1`
A. > 7.70

Q. Tell us which pIC50 value is on record for `C=CCn1c(=O)c2cnc(Nc3ccc4nn(C)cc4c3)nc2n1-c1cccc(OC2CCNCC2)n1`
A. > 7.70

Q. Tell us which pIC50 value is on record for `CCn1c(=O)c2cnc(Nc3ccc(F)cc3)nc2n1-c1cccc(OC2CCN(C)CC2)n1`
A. 6.30 to 7.00

Q. Tell us which pIC50 value is on record for `C=CCn1c(=O)c2cnc(Nc3ccc(OCC(F)(F)F)cc3)nc2n1-c1ccnc(OC2CCN(C3COC3)CC2)n1`
A. 6.30 to 7.00

Q. Tell us which pIC50 value is on record for `CCn1c(=O)c2cnc(Nc3ccc(F)cc3)nc2n1-c1cccc(OC2CCNCC2)n1`
A. 6.30 to 7.00

Q. Tell us which pIC50 value is on record for C=CCn1c(=O)c2cnc(Nc3ccc4ccoc4c3)nc2n1-c1cccc(OC2CCN(C)CC2)n1 [Compound 308]
A. > 7.70

Q. Tell us which pIC50 value is on record for `C=CCn1c(=O)c2cnc(Nc3ccc4c(cnn4C)c3)nc2n1-c1cccc(N[C@@H]2CCNC2)n1`
A. 7.00 to 7.70
